Test: Oral bioavailability in rhesus monkey
Assay type: ADME, organism-based, Macaca mulatta
Conditions: in vivo
Measure name: bioavailability (%)
Report as a plain number; the unit % is understood.

Would you mind telling me what bioavailability value was observed for COc1cccc(-c2c(C)n(Cc3c(F)cccc3C(F)(F)F)c(=O)n(C[C@H](NCCCC(=O)[O-])c3ccccc3)c2=O)c1F.[Na+] [ELAGOLIX SODIUM] ?
11

---

I'd appreciate it if you could supply Papp values for the items below.
Test: Apparent permeability across human Caco-2 cell membrane
Format: ADME, cell-based
Report as a plain number; the unit ×10⁻⁶ cm/s is understood.

Would you mind telling me what Papp value was observed for COc1cccc(-c2c(C)n(Cc3c(F)cccc3F)c(=O)n(C[C@H](N)c3ccccc3)c2=O)c1F ?
17.6

Thanks! And COc1cccc(-c2c(C)n(Cc3c(F)cccc3F)c(=O)n(C[C@H](NCCCC(=O)O)c3ccccc3)c2=O)c1F ?
0.4

Thanks! And COc1cccc(-c2c(C)n(Cc3c(F)cccc3C(F)(F)F)c(=O)n(C[C@@H](c3ccccc3)N(C)CCCC(=O)O)c2=O)c1F ?
7.5

Thanks! And COc1cccc(-c2c(C)n(Cc3c(F)cccc3C(F)(F)F)c(=O)n(C[C@H](NCCCC(=O)[O-])c3ccccc3)c2=O)c1F.[Na+] [ELAGOLIX SODIUM] ?
2.8

---

Molecular target: Gonadotropin-releasing hormone receptor (Rattus norvegicus)
Sequence (P30969 whole entry): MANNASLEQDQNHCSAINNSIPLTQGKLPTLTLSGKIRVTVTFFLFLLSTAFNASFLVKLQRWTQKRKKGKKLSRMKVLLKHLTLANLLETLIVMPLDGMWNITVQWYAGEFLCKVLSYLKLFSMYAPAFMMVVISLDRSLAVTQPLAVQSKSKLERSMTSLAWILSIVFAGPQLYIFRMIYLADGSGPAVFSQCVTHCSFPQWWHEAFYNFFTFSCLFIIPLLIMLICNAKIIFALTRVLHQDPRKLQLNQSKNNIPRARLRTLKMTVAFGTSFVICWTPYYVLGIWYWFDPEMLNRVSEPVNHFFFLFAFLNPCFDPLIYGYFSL
Measure name: Ki (µM)
Report as a plain number; the unit µM is understood.

Would you mind telling me what Ki value was observed for COc1cccc(-c2c(C)n(Cc3c(F)cccc3C(F)(F)F)c(=O)n(C[C@H](N)c3ccccc3)c2=O)c1F ?
1.2

Thanks! And COc1cccc(-c2c(C)n(Cc3c(F)cccc3C(F)(F)F)c(=O)n(C[C@H](NCCCC(=O)[O-])c3ccccc3)c2=O)c1F.[Na+] [ELAGOLIX SODIUM] ?
4.4

---

Assay: AUC in rhesus monkey
Format: ADME, organism-based, Macaca mulatta
Details: plasma
Measure name: AUC

Would you mind telling me what AUC value was observed for COc1cccc(-c2c(C)n(Cc3c(F)cccc3C(F)(F)F)c(=O)n(C[C@H](NCCCC(=O)[O-])c3ccccc3)c2=O)c1F.[Na+] [ELAGOLIX SODIUM] ?
699 ng·h/mL

---

Assay: Half life in Beagle dog at 50 mg/kg, po
Assay type: ADME, organism-based, Canis lupus familiaris
Design: dose 50 mg/kg, route oral
Conditions: in vivo
Measure name: half-life (h)
Report as a plain number; the unit h is understood.

Would you mind telling me what half-life value was observed for COc1cccc(-c2c(C)n(Cc3c(F)cccc3C(F)(F)F)c(=O)n(C[C@H](NCCCC(=O)[O-])c3ccccc3)c2=O)c1F.[Na+] [ELAGOLIX SODIUM] ?
2.8

---

Test: Half life in mouse
Format: ADME, organism-based
Conditions: in vivo
Measure name: half-life (min)
Report as a plain number; the unit min is understood.

Would you mind telling me what half-life value was observed for COc1cccc(-c2c(C)n(Cc3c(F)cccc3C(F)(F)F)c(=O)n(C[C@H](NCCCC(=O)[O-])c3ccccc3)c2=O)c1F.[Na+] [ELAGOLIX SODIUM] ?
18

---

Test: Cmax in rat at 10 mg/kg, iv and 10 mg/kg, po
Format: ADME, organism-based
Conditions: in vivo
Measure name: Cmax (ng/mL)
Report as a plain number; the unit ng/mL is understood.

Would you mind telling me what Cmax value was observed for COc1cccc(-c2c(C)n(Cc3c(F)cccc3C(F)(F)F)c(=O)n(C[C@H](N)c3ccccc3)c2=O)c1F ?
15

Thanks! And COc1cccc(-c2c(C)n(Cc3c(F)cccc3F)c(=O)n(C[C@H](N)c3ccccc3)c2=O)c1F ?
24.2

Provenance of the data: ChEMBL document CHEMBL1140215
